- assay-method-text: Cmax in human at 800 mg, po administered as single dose with meal measured on day 1
- Assay type: ADME, organism-based
- Parameters: dose 800 mg, route oral
- assay-setup: in vivo
quantity: Cmax (ng/mL)
One number for each entry, in ng/mL.

Name the recorded Cmax of the item O=C1C=CN(c2c(F)cc(N3C[C@H](CNc4ccon4)OC3=O)c(F)c2F)CC1 in your answer. 27800

====

- assay-method-text: Half life in male rat at 15 mg/kg, po
- Format: ADME, organism-based
- Parameters: dose 15 mg/kg, route oral
- assay-setup: in vivo
quantity: half-life (h)
Answers are plain numbers, in h.

Name the recorded half-life of the item O=C1C=CN(c2c(F)cc(N3C[C@H](CNc4ccon4)OC3=O)c(F)c2F)CC1 [CONTEZOLID] in your answer. 1.18

====

- assay-method-text: Tmax in human at 800 mg, po administered as single dose with meal measured on day 1
- Type: ADME, organism-based
- assay-setup: in vivo
quantity: Tmax (min)
One number for each entry, in min.

Name the recorded Tmax of the item O=C1C=CN(c2c(F)cc(N3C[C@H](CNc4ccon4)OC3=O)c(F)c2F)CC1 [CONTEZOLID] in your answer. 51

====

- assay-method-text: Tmax in fasted human at 300 mg, po administered as single dose
- Assay type: ADME, organism-based
- assay-setup: in vivo
quantity: Tmax (h)
Answers are plain numbers, in h.

Name the recorded Tmax of the item O=C1C=CN(c2c(F)cc(N3C[C@H](CNc4ccon4)OC3=O)c(F)c2F)CC1 [CONTEZOLID] in your answer. 1.25

====

- assay-method-text: Elimination half life in fasted human at 900 mg, po administered as single dose
- Assay type: ADME, organism-based
- assay-setup: in vivo, read-out: beta t1/2 (converted)
quantity: half-life (h)
Numbers only, in h.

Name the recorded half-life of the item O=C1C=CN(c2c(F)cc(N3C[C@H](CNc4ccon4)OC3=O)c(F)c2F)CC1 in your answer. 4.9

====

- assay-method-text: AUC (0 to t) in male rat at 45 mg/kg, po
- Assay type: ADME, organism-based
- Parameters: dose 45 mg/kg, route oral
- assay-setup: plasma
quantity: AUC(0-t) (ng·h/mL)
Give bare numbers, in ng·h/mL.

Name the recorded AUC(0-t) of the item O=C1C=CN(c2c(F)cc(N3C[C@H](CNc4ccon4)OC3=O)c(F)c2F)CC1 [CONTEZOLID] in your answer. 93800

====

- assay-method-text: Elimination half life in fasted human at 300 mg, po administered as single dose
- Type: ADME, organism-based
- assay-setup: in vivo, read-out: beta t1/2 (converted)
quantity: half-life
Please append the unit to your numeric answer.

Name the recorded half-life of the item O=C1C=CN(c2c(F)cc(N3C[C@H](CNc4ccon4)OC3=O)c(F)c2F)CC1 in your answer. 2.18 h

====

- assay-method-text: Tmax in fasted human at 600 mg, po administered as single dose
- Type: ADME, organism-based
- assay-setup: in vivo
quantity: Tmax
Please append the unit to your numeric answer.

Name the recorded Tmax of the item O=C1C=CN(c2c(F)cc(N3C[C@H](CNc4ccon4)OC3=O)c(F)c2F)CC1 [CONTEZOLID] in your answer. 2 h

====

- Tested on: Staphylococcus aureus
- assay-method-text: Antibacterial activity against methicillin-resistant Staphylococcus aureus SAU1009
- Format: functional
Lab note: cut-off is 1 µg/mL. Strictly less in MIC is t. Exactly 1 µg/mL or more is f.

entry-smiles	tgt	qualitative-label
Cn1nnc(-c2ccc(-c3ccc(N4C[C@H](CO)OC4=O)cc3F)cn2)n1	Staphylococcus aureus	t

I wonder whether O=C1C=CN(c2ccc(N3C[C@H](COc4ccon4)OC3=O)c(F)c2F)CC1 has MIC below 1 µg/mL. Can you tell? f

I wonder whether O=C1OCCN1c1ccc(-c2ccc(N3C[C@H](CO)OC3=O)c(F)c2F)cn1 has MIC below 1 µg/mL. Can you tell? t

I wonder whether COC(=O)NC[C@H]1CN(c2cc(F)c(N3C=CC(=O)CC3)c(F)c2F)C(=O)O1 has MIC below 1 µg/mL. Can you tell? f

I wonder whether CC(=O)NC[C@H]1CN(c2cc(F)c(N3C=CC(=O)CC3)c(F)c2F)C(=O)O1 has MIC below 1 µg/mL. Can you tell? f

I wonder whether N#Cc1ccc(-c2ccc(N3C[C@H](CO)OC3=O)cc2F)cn1 has MIC below 1 µg/mL. Can you tell? t

I wonder whether O=C1O[C@@H](CO)CN1c1ccc(-c2ccc(N3CCOC3=O)nc2)c(F)c1 has MIC below 1 µg/mL. Can you tell? t

====

- assay-method-text: AUC (0 to infinity) in fasted human at 600 mg, po administered as single dose
- Assay type: ADME, organism-based
- Parameters: dose 600 mg, route oral, time infinity
- assay-setup: plasma
quantity: AUC(0-inf)

Name the recorded AUC(0-inf) of the item O=C1C=CN(c2c(F)cc(N3C[C@H](CNc4ccon4)OC3=O)c(F)c2F)CC1 in your answer. 48300 ng·h/mL

====

- assay-method-text: Cmax in female rat at 5 mg/kg, po
- Format: ADME, organism-based
- Design: dose 5 mg/kg, route oral
- assay-setup: in vivo
quantity: Cmax (ng/mL)
One number for each entry, in ng/mL.

Name the recorded Cmax of the item O=C1C=CN(c2c(F)cc(N3C[C@H](CNc4ccon4)OC3=O)c(F)c2F)CC1 in your answer. 9390

====

- assay-method-text: Half life in male rat at 5 mg/kg, po
- Type: ADME, organism-based
- Parameters: dose 5 mg/kg, route oral
- assay-setup: in vivo
quantity: half-life
Please append the unit to your numeric answer.

Name the recorded half-life of the item O=C1C=CN(c2c(F)cc(N3C[C@H](CNc4ccon4)OC3=O)c(F)c2F)CC1 in your answer. 64.8 min

====

- assay-method-text: Cmax in male rat at 15 mg/kg, po
- Type: ADME, organism-based
- Design: dose 15 mg/kg, route oral
- assay-setup: in vivo
quantity: Cmax

Name the recorded Cmax of the item O=C1C=CN(c2c(F)cc(N3C[C@H](CNc4ccon4)OC3=O)c(F)c2F)CC1 in your answer. 10700 ng/mL

====

- assay-method-text: Toxicity in po dosed rat administered as bid for 4 weeks
- Format: organism-based
- assay-setup: in vivo
quantity: NOAEL at 672 h (mg/kg/day)
Give bare numbers, in mg/kg/day.

Name the recorded NOAEL at 672 h of the item O=C1C=CN(c2c(F)cc(N3C[C@H](CNc4ccon4)OC3=O)c(F)c2F)CC1 in your answer. 100

====

- assay-method-text: Half life in female rat at 5 mg/kg, po
- Type: ADME, organism-based
- Design: dose 5 mg/kg, route oral
- assay-setup: in vivo
quantity: half-life (h)
Give bare numbers, in h.

Name the recorded half-life of the item O=C1C=CN(c2c(F)cc(N3C[C@H](CNc4ccon4)OC3=O)c(F)c2F)CC1 in your answer. 2.07

====

- tgt: MAO-A (Homo sapiens)
- Sequence (P21397 whole entry): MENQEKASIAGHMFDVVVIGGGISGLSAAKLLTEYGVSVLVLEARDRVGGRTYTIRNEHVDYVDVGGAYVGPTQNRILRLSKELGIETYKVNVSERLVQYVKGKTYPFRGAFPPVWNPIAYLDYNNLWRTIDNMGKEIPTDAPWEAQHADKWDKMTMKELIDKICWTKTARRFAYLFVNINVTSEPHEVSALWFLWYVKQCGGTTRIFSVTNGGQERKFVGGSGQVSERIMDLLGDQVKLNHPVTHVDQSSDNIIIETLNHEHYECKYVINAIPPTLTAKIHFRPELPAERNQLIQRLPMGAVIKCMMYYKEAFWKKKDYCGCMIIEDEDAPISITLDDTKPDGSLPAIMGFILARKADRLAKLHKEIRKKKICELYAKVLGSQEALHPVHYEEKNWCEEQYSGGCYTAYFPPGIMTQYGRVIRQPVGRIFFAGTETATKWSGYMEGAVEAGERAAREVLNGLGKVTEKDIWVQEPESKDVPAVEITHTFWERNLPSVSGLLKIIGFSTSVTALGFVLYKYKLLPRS
- assay-method-text: Ratio of compound IC50 to linezolid IC50 for MAO-A (unknown origin) by fluorescence plate reader analysis
- Assay type: ADME
quantity: selectivity ratio
Answers are plain numbers.

Name the recorded selectivity ratio of the item O=C1C=CN(c2c(F)cc(N3C[C@H](CNc4ccon4)OC3=O)c(F)c2F)CC1 in your answer. 5.2

====

- tgt: Cytochrome P450 2E1 (Homo sapiens, UniProt P05181)
- Sequence (P05181 whole entry): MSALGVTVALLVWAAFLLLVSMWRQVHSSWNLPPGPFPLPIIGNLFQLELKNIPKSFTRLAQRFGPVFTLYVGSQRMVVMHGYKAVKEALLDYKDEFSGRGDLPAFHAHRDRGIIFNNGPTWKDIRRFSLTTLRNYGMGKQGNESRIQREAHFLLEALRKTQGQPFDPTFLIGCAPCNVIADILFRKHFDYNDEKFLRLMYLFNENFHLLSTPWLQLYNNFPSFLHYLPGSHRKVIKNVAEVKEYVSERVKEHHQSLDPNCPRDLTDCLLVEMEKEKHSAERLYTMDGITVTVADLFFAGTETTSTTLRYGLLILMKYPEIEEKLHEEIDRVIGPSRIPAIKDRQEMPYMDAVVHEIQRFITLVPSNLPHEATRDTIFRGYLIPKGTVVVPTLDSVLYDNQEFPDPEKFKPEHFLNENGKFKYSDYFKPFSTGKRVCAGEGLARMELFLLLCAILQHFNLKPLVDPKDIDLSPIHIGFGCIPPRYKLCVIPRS
quantity: pIC50
One number for each entry, as −log10 of the molar value.

# assay system Cytochrome P450 2E1 (Homo sapiens, UniProt P05181): give pIC50 of O=C1C=CN(c2c(F)cc(N3C[C@H](CNc4ccon4)OC3=O)c(F)c2F)CC1 5.02

====

- assay-method-text: AUC (0 to 24 hrs) in human at 800 mg, po administered as single dose with meal measured on day 1
- Assay type: ADME, organism-based
- Parameters: dose 800 mg, time < 24 hr, route oral
- assay-setup: plasma
quantity: AUC(0-t) at 24 h (ng·h/mL)
Give bare numbers, in ng·h/mL.

Name the recorded AUC(0-t) at 24 h of the item O=C1C=CN(c2c(F)cc(N3C[C@H](CNc4ccon4)OC3=O)c(F)c2F)CC1 in your answer. 91800

====

- assay-method-text: Oral bioavailability in dog
- Format: ADME, organism-based, Canis lupus familiaris
- assay-setup: in vivo
quantity: bioavailability (%)
One number for each entry, in %.

Name the recorded bioavailability of the item O=C1C=CN(c2c(F)cc(N3C[C@H](CNc4ccon4)OC3=O)c(F)c2F)CC1 in your answer. 37

====

- assay-method-text: Cmax in human at 600 mg, po administered as single dose with meal measured on day 1
- Type: ADME, organism-based
- Design: dose 600 mg, route oral
- assay-setup: in vivo
quantity: Cmax (ng/mL)
Answers are plain numbers, in ng/mL.

Name the recorded Cmax of the item O=C1C=CN(c2c(F)cc(N3C[C@H](CNc4ccon4)OC3=O)c(F)c2F)CC1 in your answer. 20300
